protocol description: Solubility in water, Shake Flask Method (OECD Guideline 105)
Type: physicochemical
conditions: 20° C., buffered at pH 7, Shake Flask Method (OECD Guideline 105)
observable: solubility in water
Quote the value and follow it with the unit of measurement.

OC(Cc1ccccc1Cl)(Cn1nc[nH]c1=S)C1(Cl)CC1 (stereo not shown) [DMSO Solvate, prothioconazole]
30 ppm
OC(Cc1ccccc1Cl)(Cn1nc[nH]c1=S)C1(Cl)CC1 (racemic) [Form I]
28 ppm
OC(Cc1ccccc1Cl)(Cn1nc[nH]c1=S)C1(Cl)CC1 (stereo not shown) [Amorphous, prothioconazole]
34 ppm

Incoming: Would you kindly share the measured solubility in water for OC(Cc1ccccc1Cl)(Cn1nc[nH]c1=S)C1(Cl)CC1 (racemic) [Form II] ?
Outgoing: 15 ppm
